Target: GSK-3 α (Homo sapiens)
Sequence (P49840 whole entry): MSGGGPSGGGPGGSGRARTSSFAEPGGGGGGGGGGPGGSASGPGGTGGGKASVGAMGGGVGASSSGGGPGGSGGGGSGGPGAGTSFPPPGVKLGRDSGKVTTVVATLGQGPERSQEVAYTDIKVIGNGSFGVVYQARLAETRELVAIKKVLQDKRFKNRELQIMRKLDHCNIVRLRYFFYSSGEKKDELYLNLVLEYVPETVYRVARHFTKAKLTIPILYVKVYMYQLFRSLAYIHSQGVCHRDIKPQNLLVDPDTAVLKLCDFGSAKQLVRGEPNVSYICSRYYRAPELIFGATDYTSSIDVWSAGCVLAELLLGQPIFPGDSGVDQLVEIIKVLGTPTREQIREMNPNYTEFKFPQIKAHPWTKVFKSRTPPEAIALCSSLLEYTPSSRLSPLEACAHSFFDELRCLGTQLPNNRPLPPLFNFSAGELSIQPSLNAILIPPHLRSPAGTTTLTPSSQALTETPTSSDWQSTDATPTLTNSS
Test: Species specificity: recombinant tagged GSK-3 orthologue kinase assay
Settings: calculated from dose-response curves; -(100) taken as no inhibition at 100
From the text: Given the strong conservation of GSK-3 across evolution and the surprising selectivity of the compounds according to the present invention towards PfGSK-3 versus mammalian GSK-3, a selection of 12 GSK-3 orthologues of various species chosen on the "tree of life" analyzed. […]
pIC50: −log10 of the molar value.
Reported pIC50 values for a set of molecules

N#Cc1c(N)nc2sc(C(=O)c3cccc(Cl)c3)c(N)c2c1-c1ccccc1I [Compound 14]	< 4.00
N#Cc1cccc(C(=O)c2sc3nc(N)c(C#N)c(-c4ccccc4Cl)c3c2N)c1 [Compound 26]	< 4.60
N#Cc1c(N)nc2sc(C(=O)c3cccc(Cl)c3)c(N)c2c1-c1ccccc1Cl [Compound 22]	< 4.00

get_value(item= N#Cc1c(N)nc2sc(C(=O)c3ccc(Cl)cc3)c(N)c2c1-c1ccccc1I [Compound 1] , readout=pIC50) returns < 4.00

pIC50 measured on COc1ccccc1-c1c(C#N)c(N)nc2sc(C(=O)c3ccccc3)c(N)c12 [Compound 2] = < 4.00

get_value(item= N#Cc1c(N)nc2sc(C(=O)c3cccc(Cl)c3)c(N)c2c1-c1ccccc1Br [Compound 20] , readout=pIC50) returns < 4.00

====

Biological target: GSK-3 (Toxoplasma gondii, UniProt O44002)
Sequence (O44002 1-394): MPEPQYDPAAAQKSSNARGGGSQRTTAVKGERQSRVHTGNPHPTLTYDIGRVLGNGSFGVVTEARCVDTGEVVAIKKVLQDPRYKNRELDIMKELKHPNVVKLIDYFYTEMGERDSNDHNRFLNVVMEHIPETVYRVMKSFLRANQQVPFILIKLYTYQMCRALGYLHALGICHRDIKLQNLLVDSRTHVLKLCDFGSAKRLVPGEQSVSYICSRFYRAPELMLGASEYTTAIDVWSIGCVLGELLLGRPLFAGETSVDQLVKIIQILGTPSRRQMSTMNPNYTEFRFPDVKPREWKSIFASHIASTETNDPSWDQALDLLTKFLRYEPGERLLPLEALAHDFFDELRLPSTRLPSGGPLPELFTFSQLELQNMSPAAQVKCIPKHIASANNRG
Assay: Species specificity: recombinant tagged GSK-3 orthologue kinase assay
Format: biochemical, Toxaplasma grondii
pIC50: −log10 of the molar value.
Reported pIC50 values follow for various compounds

Sample answers from the record:
N#Cc1c(N)nc2sc(C(=O)c3ccc(Cl)cc3)c(N)c2c1-c1ccccc1I	< 4.00
N#Cc1c(N)nc2sc(C(=O)c3cccc(Cl)c3)c(N)c2c1-c1ccccc1Cl	< 4.00

Short answer for COc1ccccc1-c1c(C#N)c(N)nc2sc(C(=O)c3ccccc3)c(N)c12 : pIC50 was < 4.00
